Source listed as patent US20240409617A1.

# TARGET_OR_SYSTEM: WT Spike (SARS-CoV2)
Response reference
Respond numerically, and do not add a unit to the figure.

BINDER: Ab_27 scFv-Fc (scFv, V domains shown) VH: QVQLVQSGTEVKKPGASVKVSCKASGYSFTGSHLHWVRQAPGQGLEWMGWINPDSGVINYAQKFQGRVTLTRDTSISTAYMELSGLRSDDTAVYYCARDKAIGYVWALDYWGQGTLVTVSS VL: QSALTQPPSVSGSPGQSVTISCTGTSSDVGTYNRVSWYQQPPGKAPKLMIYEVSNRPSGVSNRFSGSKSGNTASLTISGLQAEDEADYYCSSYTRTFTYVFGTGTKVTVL
Response: 0.202

Exercise: Look up and report measured Response for this entry: Ab_20 scFv-Fc (scFv, V domains shown) VH: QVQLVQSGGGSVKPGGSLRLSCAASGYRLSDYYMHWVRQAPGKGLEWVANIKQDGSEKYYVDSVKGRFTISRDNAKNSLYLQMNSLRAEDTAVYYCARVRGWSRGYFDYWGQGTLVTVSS VL: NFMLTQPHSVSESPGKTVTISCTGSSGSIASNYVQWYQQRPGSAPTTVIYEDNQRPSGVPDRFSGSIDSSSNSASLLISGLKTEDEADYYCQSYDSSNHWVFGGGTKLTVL
Key: 0.0985

Exercise: Item S1-RBD-R3-T1-C7 Ab (Ab_29) scFv-Fc (scFv, V domains shown) VH: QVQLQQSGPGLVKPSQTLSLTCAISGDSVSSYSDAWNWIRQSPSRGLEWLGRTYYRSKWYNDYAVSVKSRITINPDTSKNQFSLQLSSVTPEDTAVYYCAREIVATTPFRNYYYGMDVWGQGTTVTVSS VL: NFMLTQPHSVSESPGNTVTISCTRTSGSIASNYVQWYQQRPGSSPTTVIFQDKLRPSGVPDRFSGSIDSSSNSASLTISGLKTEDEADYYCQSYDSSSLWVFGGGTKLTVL : provide Response
Key: 0.126
